Provide the reported melting point of each item.

>>> recorded_value("CC(C)OC(=O)Nc1ccc(-c2c(C#N)c3ccc(N4CCOCC4)cc3n2CC2CC2)cc1 [Compound 2891]")
"170 to 180 °C"
>>> recorded_value("CC(C)OC(=O)Nc1ccc(-c2c(C#N)c3ccc(OC4COCOC4)cc3n2C2CCC2)cc1 [Compound 2894]")
"208 to 210 °C"
>>> recorded_value("CC(OC(=O)Nc1ccc(-c2c(C#N)c3ccc(OCc4cnccn4)cc3n2C2CCC2)cc1)C(F)(F)F (stereo not drawn) [Compound 3021]")
"195 to 196 °C"

For the 2 compounds below, give their melting point values.
1. Cc1ccnc(Oc2ccc3c(C#N)c(-c4ccc(NC(C)C)cc4)n(C4CCC4)c3c2)n1 [Compound 3006]
2. CCCS(=O)(=O)Nc1ccc(-c2c(C#N)c3ccc(-c4ncccc4Cl)cc3n2C2CCC2)cc1 [Compound 2972]

["173 to 175 °C", "235 to 237 °C"]

For the 5 compounds below, give their melting point values.
1. CN(C)C(=O)c1ccc2c(C#N)c(-c3ccc(NS(=O)(=O)C4CC4)cc3)n(C3CCC3)c2c1 [Compound 2297]
2. CC(C)(C)c1csc(Nc2ccc(-c3c(C#N)c4ccc(Oc5ncccn5)cc4n3C3CCC3)cc2)n1 [Compound 3179]
3. COCCOc1ccc2c(C#N)c(-c3ccc(NC(=O)O[C@H](C)C4CC4)cc3)n(C(C)C)c2c1 [Compound 2719]
4. COCCOc1ccc2c(C#N)c(-c3ccc(C(=O)N[C@H](C)c4ccc(F)cc4)cc3)n(C3CCC3)c2c1 [Compound 3132]
5. CC(C)OC(=O)Nc1ccc(-c2c(C#N)c3ccc(N4CCOCC4)cc3n2C2CC2)cc1 [Compound 2856]

["235 to 237 °C", "240 to 241 °C", "88 to 100 °C", "169 to 170 °C", "220 to 227 °C"]

For the 6 compounds below, give their melting point values.
1. CCOCCOc1ccc2c(C#N)c(-c3ccc(NC(=O)NC(C)C)cc3)n(C3CCC3)c2c1 [Compound 2612]
2. CC(C)OC(=O)Nc1ccc(-c2c(C#N)c3ccc(N4CCOCC4)cc3n2C2CCC2)cc1 [compound 2800]
3. CCn1c(-c2ccc3c(ccn3S(C)(=O)=O)c2)c(C#N)c2ccc(OC)cc21 [compound 1330]
4. CC(C)S(=O)(=O)Nc1ccc(-c2c(C#N)c3ccc(OC4CCOCC4)cc3n2C2CCC2)cc1 [Compound 2748]
5. N#Cc1c(-c2ccc(N3CCCS3(=O)=O)cc2)n(C2CC2)c2cc(OC3CCOCC3)ccc12 [Compound 2941]
6. C[C@@H](OC(=O)Nc1ccc(-c2c(C#N)c3ccc(OC4CCS(=O)(=O)CC4)cc3n2CC2CC2)cc1)C1CC1 [Compound 3233]

148 to 150 °C
206 to 208 °C
148 to 151 °C
211 to 213 °C
219 to 224 °C
193 to 198 °C

----------
Provide the reported melting point of each item.

Illustrative cases are given below, each with its answer.
>>> recorded_value("CC(C)n1c(-c2ccc(NC(=O)O[C@H](C)C3CC3)cc2)c(C#N)c2ccc(OC3CCS(=O)(=O)CC3)cc21 [Compound 3235]")
"249 to 256 °C"
>>> recorded_value("COCCOc1ccc2c(C#N)c(-c3ccc(NC(=O)O[C@H](C)C4CC4)cc3)n(C3CCC3)c2c1 [Compound 2702]")
"116 to 117 °C"

For the 5 compounds below, give their melting point values.
1. N#Cc1c(-c2ccc(NS(=O)(=O)NCC3CC3)cc2)n(C2CCC2)c2cc(OC3CCOCC3)ccc12 [Compound 2837]
2. CC(C)OC(=O)Nc1ccc(-c2c(C#N)c3cc(OCCCn4ccnc4)ccc3n2C2CCC2)cc1 [Compound 2607]
3. N#Cc1c(-c2ccc(NS(=O)(=O)C3CCCC3)cc2)n(C2CCC2)c2cc(OC3COCOC3)ccc12 [Compound 2918]
4. CCNS(=O)(=O)Nc1ccc(-c2c(C#N)c3ccc(OC4CCOCC4)cc3n2C2CCC2)cc1 [Compound 2834]
5. CC(C)OC(=O)Nc1ccc(-c2c(C#N)c3ccc(OC4CCN(Cc5ccccc5)C4)cc3n2C2CCC2)cc1 (stereo not shown) [Compound 1442]

210 to 212 °C
209 to 211 °C
195 to 196 °C
199 to 201 °C
144 to 145 °C

----------
Provide the reported melting point of each item.

>>> recorded_value("CC(C)CS(=O)(=O)Nc1ccc(-c2c(C#N)c3ccc(N4CCCCC4)cc3n2C2CCC2)cc1")
"198 to 202 °C"
>>> recorded_value("CCC(CC)NS(=O)(=O)Nc1ccc(-c2c(C#N)c3ccc(OC4CCOCC4)cc3n2C2CCC2)cc1")
"193 to 195 °C"

For the 2 compounds below, give their melting point values.
1. O=S1(=O)CCCN1c1ccc(-c2cc3ccc(Oc4ncccn4)cc3n2CC2CC2)cc1
2. CCN(CC)C(=O)c1ccc2c(C#N)c(-c3ccc(NC(=O)OC(C)C)cc3)n(C3CCC3)c2c1

1: 98 to 99 °C; 2: 189 to 191 °C

For the 4 compounds below, give their melting point values.
1. COCCOc1ccc2c(C#N)c(-c3ccc(C(=O)NCCN4CCOCC4)cc3)n(C3CCC3)c2c1
2. CCCNC(=O)Nc1ccc(-c2c(C#N)c3ccc(OCc4csc(C)n4)cc3n2CC)cc1
3. N#Cc1c(-c2ccc(NC(=O)OC3CCS(=O)(=O)CC3)cc2)n(C2CCC2)c2cc(Oc3ncccn3)ccc12
4. Cc1cccn(-c2ccc3c(C#N)c(-c4ccc(NC(=O)OC(C)C)cc4)n(C4CCC4)c3c2)c1=O

169 to 170 °C
220 to 222 °C
181 to 212 °C
284 to 285 °C

For the 7 compounds below, give their melting point values.
1. N#Cc1c(-c2ccc(NS(=O)(=O)C3CC3)cc2)n(C2CCC2)c2ccc(OC3COCOC3)cc12
2. COCCOc1ccc2c(C#N)c(-c3ccc(C(=O)N4CCOCC4)cc3)n(C3CCC3)c2c1
3. CCc1cnc(Oc2ccc3c(C#N)c(-c4ccc(NC(=O)O[C@H](C)C5CC5)cc4)n(C4CCC4)c3c2)nc1
4. CC(OC(=O)Nc1ccc(-c2c(C#N)c3ccc(OCC(F)F)cc3n2C2CCC2)cc1Cl)C(F)(F)F (stereo not drawn)
5. CC(C)NC(=S)Nc1ccc(-c2c(C#N)c3ccc(OC4CCOCC4)cc3n2C2CCC2)cc1
6. CCOc1ccc2c(C#N)c(-c3ccc(NC(=O)NCC(C)O)cc3)n(C3CCC3)c2c1 (stereo not drawn)
7. CC[S+]([O-])c1ccc2c(C#N)c(-c3ccc(NC(=O)OC(C)C)cc3)n(C3CCC3)c2c1 (stereo not drawn)

1. 199 to 203 °C
2. 148 to 150 °C
3. 158 to 160 °C
4. 184 to 185 °C
5. 129 to 130 °C
6. 195 to 200 °C
7. 165 to 168 °C

----------
RECORDED ENDPOINT: melting point

Illustrative cases are given below, each with its answer.
>>> recorded_value("CC(OC(=O)Nc1ccc(-c2c(C#N)c3ccc(OCC4OCCO4)cc3n2C2CCC2)cc1)C(F)(F)F (stereo not shown) [Compound 2646]")
"187 to 189 °C"
>>> recorded_value("CC(C)(C)OC(=O)Nc1ccc(-c2c(C#N)c3ccc(N4CCSCC4)cc3n2C2CCC2)cc1 [Compound 2777]")
"191 °C (dec.)"
>>> recorded_value("CC(C)n1c(-c2ccc(NC(=O)O[C@H](C)C3CC3)cc2)c(C#N)c2ccc(O[C@H]3CCOC3)cc21 [Compound 2742]")
"189 to 192 °C"

// next item, melting point requested
I have this compound here, CCn1c(-c2ccc(NC(=O)OCCF)cc2)c(C#N)c2ccc(OCCOC)cc21 [Compound 1371] , and I need its recorded melting point.
166 to 168 °C

----------
Provide the reported melting point of each item.

Illustrative cases are given below, each with its answer.
>>> recorded_value("Cc1ccc(-c2ccc3c(C#N)c(-c4ccc(NC(=O)O[C@H](C)C5CC5)cc4)n(C4CCC4)c3c2)nc1")
"88 to 102 °C"
>>> recorded_value("COCCOc1ccc2c(C#N)c(-c3ccc(C(=O)NCc4ccc(F)cc4)cc3)n(C3CCC3)c2c1")
"154 to 160 °C"
>>> recorded_value("CSCCOc1ccc2c(C#N)c(-c3ccc(NC(=O)OC(C)C)cc3)n(C3CCC3)c2c1")
"132 to 133 °C"
>>> recorded_value("CCCS(=O)(=O)Nc1ccc(-c2c(C#N)c3ccc(Oc4cccnc4Cl)cc3n2C2CCC2)cc1")
"173 to 175 °C"
>>> recorded_value("CCOC(=O)Nc1ccc(-c2c(C#N)c3ccc(N4CCN(C)CC4)cc3n2CC)cc1")
"177 to 178 °C"

For the 2 molecules below, give their melting point values.
1. CC(C)C(OC(=O)Nc1ccc(-c2c(C#N)c3ccc(OC4CCOC4)cc3n2C2CCC2)cc1)C(C)C (stereo not shown)
2. CCCS(=O)(=O)Nc1ccc(-c2c(C#N)c3ccc(Oc4ncccc4C#N)cc3n2C2CCC2)c(F)c1

1. 183 to 184 °C
2. 113 to 116 °C

Reference for the values: patent US7772271B2
